Target: Sodium-dependent serotonin transporter (Rattus norvegicus, UniProt P31652)
Sequence (P31652 whole entry): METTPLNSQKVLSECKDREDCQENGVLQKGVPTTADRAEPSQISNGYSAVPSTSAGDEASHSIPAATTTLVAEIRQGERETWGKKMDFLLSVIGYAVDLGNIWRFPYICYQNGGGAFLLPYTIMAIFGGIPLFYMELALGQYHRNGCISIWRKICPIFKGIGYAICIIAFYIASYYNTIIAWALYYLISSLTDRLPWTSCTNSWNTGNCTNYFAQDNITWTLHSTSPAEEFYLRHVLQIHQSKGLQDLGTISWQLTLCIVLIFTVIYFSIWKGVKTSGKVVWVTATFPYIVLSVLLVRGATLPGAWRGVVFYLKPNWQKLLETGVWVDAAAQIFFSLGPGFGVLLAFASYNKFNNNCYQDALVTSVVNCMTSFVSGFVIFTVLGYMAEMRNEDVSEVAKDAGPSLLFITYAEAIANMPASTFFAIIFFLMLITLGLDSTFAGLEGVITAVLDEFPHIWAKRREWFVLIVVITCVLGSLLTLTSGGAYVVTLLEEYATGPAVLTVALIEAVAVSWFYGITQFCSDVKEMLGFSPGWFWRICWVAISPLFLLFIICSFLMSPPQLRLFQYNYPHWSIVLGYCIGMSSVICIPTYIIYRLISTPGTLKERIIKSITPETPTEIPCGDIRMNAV
Test: Inhibition of [3H]5-HT reuptake at serotonin transporter in rat mid brain
// NB: equality with 2000 nM counts as NOT MET; only Ki strictly below is MET

Solved cases (10 shown):
>  <COMPOUND>
O=C(OCC1C2CC3CCC1N3C/C2=C\c1cccs1)c1ccc2ccccc2c1 (stereo not drawn)

>  <MEASURED_TARGET>
Sodium-dependent serotonin transporter (Rattus norvegicus, UniProt P31652)

>  <CLASS>
MET

$$$$
>  <COMPOUND>
CC(=O)OCC1C2CC3CCC1N3C/C2=C\c1cccs1 (stereo not drawn)

>  <MEASURED_TARGET>
Sodium-dependent serotonin transporter (Rattus norvegicus, UniProt P31652)

>  <CLASS>
MET

$$$$
>  <COMPOUND>
O=C(OCC1C2CC3CCC1N3C/C2=C\c1cccs1)c1ccccc1 (stereo not drawn)

>  <MEASURED_TARGET>
Sodium-dependent serotonin transporter (Rattus norvegicus, UniProt P31652)

>  <CLASS>
MET

$$$$
>  <COMPOUND>
COC(=O)C1C2CC3CCC1N3C/C2=C\c1ccc(C)s1 (stereo not drawn)

>  <MEASURED_TARGET>
Sodium-dependent serotonin transporter (Rattus norvegicus, UniProt P31652)

>  <CLASS>
MET

$$$$
>  <COMPOUND>
CC(C)(C)OC(=O)NCC1C2CC3CCC1N3C/C2=C\c1cccs1 (stereo not drawn)

>  <MEASURED_TARGET>
Sodium-dependent serotonin transporter (Rattus norvegicus, UniProt P31652)

>  <CLASS>
NOT MET

$$$$
>  <COMPOUND>
CC(C)OC(=O)C1C2CC3CCC1N3C/C2=C\c1cccs1 (stereo not drawn)

>  <MEASURED_TARGET>
Sodium-dependent serotonin transporter (Rattus norvegicus, UniProt P31652)

>  <CLASS>
MET

$$$$
>  <COMPOUND>
O=C(OCC1C2CC3CCC1N3C/C2=C\c1ccc(I)cc1)c1ccccc1 (stereo not drawn)

>  <MEASURED_TARGET>
Sodium-dependent serotonin transporter (Rattus norvegicus, UniProt P31652)

>  <CLASS>
MET

$$$$
>  <COMPOUND>
COC(=O)C1C2CC3CCC1N3C/C2=C\c1ccc(I)s1 (stereo not drawn)

>  <MEASURED_TARGET>
Sodium-dependent serotonin transporter (Rattus norvegicus, UniProt P31652)

>  <CLASS>
MET

$$$$
>  <COMPOUND>
CC(=O)NCC1C2CC3CCC1N3C/C2=C\c1cccs1 (stereo not drawn)

>  <MEASURED_TARGET>
Sodium-dependent serotonin transporter (Rattus norvegicus, UniProt P31652)

>  <CLASS>
NOT MET

$$$$
>  <COMPOUND>
CC(C)(C)C(=O)OCC1C2CC3CCC1N3C/C2=C\c1cccs1 (stereo not drawn)

>  <MEASURED_TARGET>
Sodium-dependent serotonin transporter (Rattus norvegicus, UniProt P31652)

>  <CLASS>
MET

$$$$

From here, focus on the item given below.
*Q* Here's an entry: O=C(OCC1C2CC3CCC1N3C/C2=C\c1ccc(I)c(Cl)c1)c1ccccc1 (stereo not drawn) . Is its Ki below 2000 nM?
*A* MET

* * *

Target: Sodium-dependent dopamine transporter (Rattus norvegicus, UniProt P23977)
Sequence (P23977 whole entry): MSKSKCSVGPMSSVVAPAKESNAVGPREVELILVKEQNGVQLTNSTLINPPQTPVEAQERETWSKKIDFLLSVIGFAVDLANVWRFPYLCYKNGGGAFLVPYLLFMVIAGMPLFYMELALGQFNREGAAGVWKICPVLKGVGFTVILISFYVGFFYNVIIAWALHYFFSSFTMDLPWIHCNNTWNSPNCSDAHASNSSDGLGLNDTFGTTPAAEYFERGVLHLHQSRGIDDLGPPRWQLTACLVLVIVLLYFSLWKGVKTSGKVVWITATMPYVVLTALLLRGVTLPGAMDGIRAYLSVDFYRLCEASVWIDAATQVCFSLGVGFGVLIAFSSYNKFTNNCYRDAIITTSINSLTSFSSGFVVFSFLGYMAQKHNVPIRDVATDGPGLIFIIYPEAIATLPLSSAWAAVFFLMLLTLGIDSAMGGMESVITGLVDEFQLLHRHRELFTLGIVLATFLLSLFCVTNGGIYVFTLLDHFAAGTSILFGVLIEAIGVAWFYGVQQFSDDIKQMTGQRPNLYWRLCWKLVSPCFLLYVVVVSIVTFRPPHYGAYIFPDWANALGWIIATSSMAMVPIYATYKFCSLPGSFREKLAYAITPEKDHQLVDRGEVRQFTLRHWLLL
Assay: Inhibition of [3H]DA reuptake at dopamine transporter in rat striatum
// NB: equality with 2000 nM counts as FALSE; only Ki strictly below is TRUE

Solved cases (9 shown):
>  <MOLECULE>
CC(C)(C)OC(=O)NCC1C2CC3CCC1N3C/C2=C\c1cccs1 (stereo unspecified)

>  <CLASS>
FALSE

$$$$
>  <MOLECULE>
O=C(OCC1C2CC3CCC1N3C/C2=C\c1cccs1)c1ccc2ccccc2c1 (stereo unspecified)

>  <CLASS>
TRUE

$$$$
>  <MOLECULE>
O=C(OCC1C2CC3CCC1N3C/C2=C\c1cccs1)c1ccccc1 (stereo unspecified)

>  <CLASS>
TRUE

$$$$
>  <MOLECULE>
CC(=O)NCC1C2CC3CCC1N3C/C2=C\c1cccs1 (stereo unspecified)

>  <CLASS>
FALSE

$$$$
>  <MOLECULE>
CC(C)(C)C(=O)OCC1C2CC3CCC1N3C/C2=C\c1cccs1 (stereo unspecified)

>  <CLASS>
TRUE

$$$$
>  <MOLECULE>
CC(C)OC(=O)C1C2CC3CCC1N3C/C2=C\c1cccs1 (stereo unspecified)

>  <CLASS>
TRUE

$$$$
>  <MOLECULE>
COC(=O)C1C2CC3CCC1N3C/C2=C\c1ccc(I)s1 (stereo unspecified)

>  <CLASS>
TRUE

$$$$
>  <MOLECULE>
COC(=O)C1C2CC3CCC1N3C/C2=C\c1ccc(C)s1 (stereo unspecified)

>  <CLASS>
TRUE

$$$$
>  <MOLECULE>
COC(=O)C1C2CC3CCC1N3C/C2=C\c1cccs1 (stereo unspecified)

>  <CLASS>
TRUE

$$$$

*Q* Here's an entry: CC(=O)OCC1C2CC3CCC1N3C/C2=C\c1cccs1 (stereo unspecified) . Is its Ki below 2000 nM?
*A* TRUE

* * *

Target: UniProt Q9WTR4
Assay: Inhibition of [3H]-NE reuptake at Norepinephrine transporter in rat parietal/occipital cortex
pKi: −log10 of the molar value.
Assign Yes whenever pKi does not fall below 6; assign No whenever it does.

Solved cases (3 shown):
>  <COMPOUND>
CC(=O)NCC1C2CC3CCC1N3C/C2=C\c1cccs1 (stereo unspecified)

>  <CLASS>
No

$$$$
>  <COMPOUND>
COC(=O)C1C2CC3CCC1N3C/C2=C\c1cccs1 (stereo unspecified)

>  <CLASS>
Yes

$$$$
>  <COMPOUND>
CC(=O)OCC1C2CC3CCC1N3C/C2=C\c1cccs1 (stereo unspecified)

>  <CLASS>
Yes

$$$$

*Q* Quick check: does CC(C)(C)OC(=O)NCC1C2CC3CCC1N3C/C2=C\c1cccs1 (stereo unspecified) have pKi greater than or equal to 6?
*A* No

*Q* Quick check: does CC(C)OC(=O)C1C2CC3CCC1N3C/C2=C\c1cccs1 (stereo unspecified) have pKi greater than or equal to 6?
*A* Yes

*Q* Quick check: does COC(=O)C1C2CC3CCC1N3C/C2=C\c1ccc(C)s1 (stereo unspecified) have pKi greater than or equal to 6?
*A* Yes

*Q* Quick check: does COC(=O)C1C2CC3CCC1N3C/C2=C\c1ccc(I)s1 (stereo unspecified) have pKi greater than or equal to 6?
*A* Yes

* * *

Target: Norepinephrine transporter (Rattus norvegicus, UniProt Q9WTR4)
Sequence (Q9WTR4 whole entry): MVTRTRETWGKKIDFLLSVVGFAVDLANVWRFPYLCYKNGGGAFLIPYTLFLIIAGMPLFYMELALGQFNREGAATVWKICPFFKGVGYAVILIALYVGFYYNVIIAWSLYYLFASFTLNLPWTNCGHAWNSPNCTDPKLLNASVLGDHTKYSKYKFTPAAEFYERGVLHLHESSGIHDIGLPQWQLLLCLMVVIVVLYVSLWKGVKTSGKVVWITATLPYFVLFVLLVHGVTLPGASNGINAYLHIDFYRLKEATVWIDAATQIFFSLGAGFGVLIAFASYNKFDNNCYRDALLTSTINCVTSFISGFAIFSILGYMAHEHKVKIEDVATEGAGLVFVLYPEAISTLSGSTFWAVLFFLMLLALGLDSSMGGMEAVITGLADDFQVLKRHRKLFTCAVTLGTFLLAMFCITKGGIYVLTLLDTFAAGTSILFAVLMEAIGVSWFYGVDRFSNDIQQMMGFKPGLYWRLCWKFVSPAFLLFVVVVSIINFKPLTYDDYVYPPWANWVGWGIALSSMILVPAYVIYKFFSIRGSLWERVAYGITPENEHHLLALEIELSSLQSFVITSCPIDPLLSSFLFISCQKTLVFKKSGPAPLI
Experiment: Inhibition of [3H]-NE reuptake at Norepinephrine transporter in rat parietal/occipital cortex
Entries and their pKi values follow.
The quantity pKi is defined as the negative base-10 logarithm of the molar concentration.

Examples with answers:
>  <COMPOUND>
O=C(OCC1C2CC3CCC1N3C/C2=C\c1cccs1)c1ccc2ccccc2c1 (centres undefined)

>  <pKi>
5.91

$$$$
>  <COMPOUND>
CC(C)(C)C(=O)OCC1C2CC3CCC1N3C/C2=C\c1cccs1 (centres undefined)

>  <pKi>
5.93

$$$$

Shifting focus to the compound that follows.
*Q* State, in one line, measured pKi of O=C(OCC1C2CC3CCC1N3C/C2=C\c1cccs1)c1ccccc1 (centres undefined)
*A* 6.05
